# Tested on: NCI-H292 lung cancer cells
# runDescription: FDA drug screening, complete media vs cholesterol-free media with simvastatin (TABLE 2)
# Assay type: cell-based, human
# assaySetup: complete media minus cholesterol-free media + simvastatin; >0 enhanced anti-cancer activity, about 0 neutral, <0 antagonist
Counter-ions that a name gives are not always drawn.
quantity: Difference
Lab note: jot the number down without any unit.

// known answers, use as guide
- molecule: "COC(=O)C1=C(C)NC(C)=C(C(=O)OC2CCCN(Cc3ccccc3)C2)C1c1cccc([N+](=O)[O-])c1 (stereo not shown) [Benidipine (hydrochloride)]"
  Difference: 0.11
- molecule: "COc1ccccc1N1CCN(CC(O)COc2cccc3ccccc23)CC1 (stereo not shown)"
  Difference: 0.07
- molecule: "CNNCc1ccc(C(=O)NC(C)C)cc1 [Procarbazine (Hydrochloride)]"
  Difference: 0.44
- molecule: "CCOc1ccc(Cc2cc([C@@H]3O[C@H](CO)[C@@H](O)[C@H](O)[C@H]3O)ccc2Cl)cc1"
  Difference: 0.25
- molecule: "COc1cccc(-c2c(C)n(Cc3c(F)cccc3C(F)(F)F)c(=O)n(C[C@H](NCCCC(=O)O)c3ccccc3)c2=O)c1F [Elagolix sodium]"
  Difference: 0.21
- molecule: "CN(CCOc1ccc(NS(C)(=O)=O)cc1)CCc1ccc(NS(C)(=O)=O)cc1 [Dofetilide]"
  Difference: 0.16

We next turn to a different molecule, shown below.
Missing value: Difference, NCI-H292 lung cancer cells, entry N#Cc1ccnc(N2C(=O)CC[C@H]2C(=O)N(c2cncc(F)c2)[C@H](C(=O)NC2CC(F)(F)C2)c2ccccc2Cl)c1 . Fill in? 0.05

* * *

Reported Difference values for the following compounds.
# Test system: NCI-H292 lung cancer cells
# runDescription: FDA drug screening, complete media vs cholesterol-free media with simvastatin (TABLE 2)
# Format: cell-based, human
# assaySetup: complete media minus cholesterol-free media + simvastatin; >0 enhanced anti-cancer activity, about 0 neutral, <0 antagonist
Structures can show the parent of a compound that is named as a salt.
Lab note: jot the number down without any unit.

// known answers, use as guide
- compound: "CCc1oc2ccccc2c1C(=O)c1cc(Br)c(O)c(Br)c1"
  Difference: 0.02
- compound: "O=c1[nH]c(=O)n(C2CCCO2)cc1F (stereo not shown)"
  Difference: 0.26
- compound: "CN1C(C(=O)Nc2ccccn2)=C(O)c2sccc2S1(=O)=O"
  Difference: 0.20
- compound: "CCc1c2c(nc3ccc(OC(=O)N4CCC(N5CCCCC5)CC4)cc13)-c1cc3c(c(=O)n1C2)COC(=O)[C@]3(O)CC [Irinotecan (hydrochloride)]"
  Difference: 0.13
- compound: "OCCOCCN1CCN(C2=Nc3ccccc3Sc3ccccc32)CC1"
  Difference: 0.12

Missing value: Difference, NCI-H292 lung cancer cells, entry Nc1ncnc2[nH]cnc12 . Fill in? 0.15

For N=C(N)c1ccc(OCCCCCOc2ccc(C(=N)N)cc2)cc1.O=S(=O)(O)CCO.O=S(=O)(O)CCO [Pentamidine (isethionate)] then? 0.13

For CC(C)[C@H]1CC[C@H](C(=O)N[C@H](Cc2ccccc2)C(=O)O)CC1 [Nateglinide] then? 0.77

For CC(S)C(=O)NCC(=O)O (stereo not shown) then? 0.12

For COc1cc(C(C)=O)ccc1OCCCN1CCC(c2noc3cc(F)ccc23)CC1 then? 0.18
